Biological target: T1, IL-11 (Cat. 12225-HNCE, Sino Biological Inc.) (UniProt P20809 22-199, limits assumed)
T1 sequence (looked up): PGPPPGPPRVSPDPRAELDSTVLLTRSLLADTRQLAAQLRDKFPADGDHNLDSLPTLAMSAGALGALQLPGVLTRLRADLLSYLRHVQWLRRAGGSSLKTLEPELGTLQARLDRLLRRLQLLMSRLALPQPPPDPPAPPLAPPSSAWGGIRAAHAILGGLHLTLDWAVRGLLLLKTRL
Assay: cell-based or functional assay
Entries and their Blocking activity (IC50), STAT3-luc reporter
Record the value in µg/mL, omitting the unit from your answer.

Example entries begin here.
- binder: "hz18A10-VHm16 + hz18A10-VLm19 (antibody, V domains shown, Constant regions not restated for this antibody) VH: EVQLVQSGAEVKKPGASVKVSCKASGYTFTHYDMDWVRQAPGQGLEWMGTIYPGNADTSYNQKFKGRVTMTRDTSTSTVYMELSSLRSEDTAVYYCARGDLYALDYWGQGTLVTVSS VL: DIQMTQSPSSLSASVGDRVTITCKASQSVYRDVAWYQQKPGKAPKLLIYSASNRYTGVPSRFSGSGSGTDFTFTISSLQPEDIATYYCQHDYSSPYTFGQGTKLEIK"
  measurement: 0.034
- binder: "hz8C8-VHm4 + hz8C8-VL (antibody, human IgG1, kappa, V domains shown, human IgG1 constant regions) VH: EVQLVESGGGLVQPGGSLRLSCAASGFTFSSFGMHWVRQAPGKGLEWVAYITSGANTIYYADTVKGRFTISRDNAKNSLYLQMNSLRAEDTAVYYCAREYYSYDEGFAYWGQGTLVTVSS VL: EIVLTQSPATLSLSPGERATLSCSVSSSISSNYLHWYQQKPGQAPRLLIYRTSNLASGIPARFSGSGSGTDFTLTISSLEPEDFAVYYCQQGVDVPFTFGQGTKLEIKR"
  measurement: 1.54

Next:
So what does the record say about Blocking activity (IC50), STAT3-luc reporter for hz8C8-VHm1 + hz8C8-VLm1 (antibody, human IgG1, kappa, V domains shown, human IgG1 constant regions) VH: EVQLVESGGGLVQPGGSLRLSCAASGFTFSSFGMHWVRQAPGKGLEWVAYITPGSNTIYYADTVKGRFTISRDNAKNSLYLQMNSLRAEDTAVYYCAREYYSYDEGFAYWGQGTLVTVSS VL: EIVLTQSPATLSLSPGERATLSCSVSSSIPSNYLHWYQQKPGQAPRLLIYRTSNLASGIPARFSGSGSGTDFTLTISSLEPEDFAVYYCQQGVDVPFTFGQGTKLEIKR ?
0.804

Entry source: patent US20250197488A1
